Consider the following compounds; for each one, report its logP.
# test-method-notes: Partition coefficient, Log P of the compound
# Assay type: physicochemical
# test-settings: octanol/water
Answer using only a numeral; do not append any unit.

The compound CN(CCCCNCCCCNC(=O)c1ccc(-c2c3nc(c(-c4ccc(C(=O)NCCCCNCCCCN(C)CCCNCCCN)cc4)c4ccc([nH]4)c(-c4ccc(C(=O)NCCCCNCCCN(C)CCCCNCCCN)cc4)c4ccc([nH]4)c(-c4ccc(C(=O)NCCCCNCCCN(C)CCCCNCCCN)cc4)c4nc2CC4)C=C3)cc1)CCCNCCCN showed logP equal to -1.98

The compound C=Cc1c(C)c2cc3nc(c(CC(=O)NCCCCNCCCN(C)CCCCNCCCN)c4nc(cc5[nH]c(cc1[nH]2)c(C)c5CC)C(C)=C4C(=O)NCCCCNCCCN(C)CCCCNCCCN)[C@@H](CCC(=O)NCCNCCCN(C)CCCCNCCCN)[C@@H]3C showed logP equal to -0.83

The compound CN(CCCN)CCCCNCCCCNC(=O)c1ccc(-c2c3nc(c(-c4ccc(C(=O)NCCCCNCCCCN(C)CCCN)cc4)c4ccc([nH]4)c(-c4ccc(C(=O)NCCCCNCCCN(C)CCCCN)cc4)c4ccc([nH]4)c(-c4ccc(C(=O)NCCCCNCCCN(C)CCCCN)cc4)c4nc2CC4)C=C3)cc1 showed logP equal to -1.87

The compound C=Cc1c(C)c2cc3nc(c(CC(=O)NCCCCNCCCN(C)CCCCN)c4nc(cc5[nH]c(cc1[nH]2)c(C)c5CC)C(C)=C4C(=O)NCCCCNCCCN(C)CCCCN)[C@@H](CCC(=O)NCCNCCCN(C)CCCCN)[C@@H]3C showed logP equal to -0.45

Data credit: ChEMBL document CHEMBL1148510
